- Tested on: Calf thymus DNA
- assay notes: Binding affinity to calf thymus DNA assessed as inhibition of DNA-dependent Escherichia coli RNA polymerase activity by measuring [14C]ATP incorporation at 10 uM by liquid scintillation spectrometer analysis
- Assay type: nucleic-acid assay
- particulars: Bos taurus
Exercise: state measured inhibition for each of the compounds provided.
Numbers only here, please. The scale is %.

I am curious: what inhibition value has been reported for "Cc1cc(NCCCCNCCCNc2cc(C)nc3cc(N)ccc23)c2ccc(N)cc2n1" ?
95

Recorded inhibition for "Cc1cc(NCCCCCCNc2cc(C)nc3cc(N)ccc23)c2ccc(N)cc2n1" , please?
91

Return reported inhibition; argument: "Cc1cc(NCCCCCCCCNc2cc(C)nc3cc(N)ccc23)c2ccc(N)cc2n1"
95

Return reported inhibition; argument: "Cc1cc(NCCCNCCCNc2cc(C)nc3cc(N)ccc23)c2ccc(N)cc2n1"
96

Sample "Cc1cc(NCCCCCCCNc2cc(C)nc3cc(N)ccc23)c2ccc(N)cc2n1" — what was its inhibition?
63

----------
Task for the reader: assign each of the following compounds its reported ΔTm.
- System: Calf thymus DNA
- assay notes: Binding affinity to calf thymus DNA assessed as change in melting temperature at 10 uM by spectrophotometer analysis
- Type: nucleic-acid assay
- particulars: Bos taurus

Record request: ΔTm value, item "Cc1cc(NCCCCCCNc2cc(C)nc3cc(N)ccc23)c2ccc(N)cc2n1"
19 °C

Given the compound "Cc1cc(NCCCCCCCCNc2cc(C)nc3cc(N)ccc23)c2ccc(N)cc2n1" , what is its reported ΔTm?
18.5 °C

Give its ΔTm value. Item: "Cc1cc(NCCCNCCCNc2cc(C)nc3cc(N)ccc23)c2ccc(N)cc2n1"
22.5 °C

Form field: reported ΔTm of "Cc1cc(NCCCCCCCNc2cc(C)nc3cc(N)ccc23)c2ccc(N)cc2n1"
17 °C

Name the reported ΔTm value associated with the compound "Cc1cc(NCCCCNCCCNc2cc(C)nc3cc(N)ccc23)c2ccc(N)cc2n1"
19.5 °C

Could you share which ΔTm value was measured for "Cc1cc(NCCCCCCNc2cc(C)nc3ccc(N)cc23)c2cc(N)ccc2n1.Cl" ?
18 °C

----------
Would you kindly list inhibition for each of these compounds?
- System: Calf thymus DNA
- assay notes: Binding affinity to calf thymus DNA assessed as inhibition of DNA-dependent Escherichia coli RNA polymerase activity by measuring [14C]ATP incorporation at 50 uM by liquid scintillation spectrometer analysis
- Type: nucleic-acid assay
- particulars: Bos taurus
Use % as the unit, but write only the number.

Form entry - test system: Calf thymus DNA; read-out: inhibition; compound: "Cc1cc(NCCCCNCCCNc2cc(C)nc3cc(N)ccc23)c2ccc(N)cc2n1"
94

# query: inhibition | item "Cc1cc(NCCCCCCCCNc2cc(C)nc3cc(N)ccc23)c2ccc(N)cc2n1" | system: Calf thymus DNA
95

Missing value: inhibition, Calf thymus DNA, entry "Cc1cc(NCCCCCCCNc2cc(C)nc3cc(N)ccc23)c2ccc(N)cc2n1" . Fill in?
98

Request - read-out inhibition | tested on Calf thymus DNA | compound "Cc1cc(NCCCCCCNc2cc(C)nc3cc(N)ccc23)c2ccc(N)cc2n1"
93

State its inhibition on Calf thymus DNA: "Cc1cc(NCCCNCCCNc2cc(C)nc3cc(N)ccc23)c2ccc(N)cc2n1"
98
